# testSystem: T1, Rhesus serum albumin (Rhesus, UniProt Q28522 17-600, limits assumed)
# T1 construct: Bought from Sigma (A4297)
# T1 sequence (Q28522 17-600 limits assumed): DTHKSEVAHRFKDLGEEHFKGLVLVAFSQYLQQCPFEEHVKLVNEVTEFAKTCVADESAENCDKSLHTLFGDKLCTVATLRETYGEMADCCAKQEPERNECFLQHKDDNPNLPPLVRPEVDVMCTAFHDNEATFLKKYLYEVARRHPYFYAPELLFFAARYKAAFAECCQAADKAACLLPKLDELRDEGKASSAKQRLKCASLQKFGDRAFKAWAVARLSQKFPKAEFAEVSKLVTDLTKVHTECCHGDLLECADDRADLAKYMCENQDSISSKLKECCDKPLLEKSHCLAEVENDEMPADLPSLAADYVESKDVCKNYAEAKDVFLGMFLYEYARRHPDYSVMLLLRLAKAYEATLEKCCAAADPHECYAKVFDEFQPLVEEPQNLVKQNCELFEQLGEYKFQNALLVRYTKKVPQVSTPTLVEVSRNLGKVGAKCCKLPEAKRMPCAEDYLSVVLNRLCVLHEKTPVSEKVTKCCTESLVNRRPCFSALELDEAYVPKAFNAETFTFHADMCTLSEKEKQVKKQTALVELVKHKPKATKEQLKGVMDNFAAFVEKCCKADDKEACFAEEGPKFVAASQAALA
# procedureDetails: SPR
Ends that are not written are not given here.
measuredQuantity: Kd (nM)
Expressed in nM, but write only the number.

In the examples that follow, each entry is paired with its recorded Kd.
Task: Return reported Kd; argument: LKEAKEKAIEELKKAGITSDAYFDLINKAKTVEGVNALKDEILKA (designed binder, not fully specified, Expressed and purified as described for ABDCon; also called ABDCon Y21A; not shown: N-terminal 8-His tag as for ABDCon) [ABDCon2]
Result: 17.5

Task: Return reported Kd; argument: LKEAKEKAIEELKKAGITSDYYFDLINKAKTVEGVNALKDQILKA (designed binder, not fully specified, Expressed and purified as described for ABDCon; also called ABDCon E41Q; not shown: N-terminal 8-His tag as for ABDCon) [ABDCon7]
Result: 0.5

Task: Return reported Kd; argument: LKEAKEKAIEELKKAGITSDYYFDLINKAKAVEGVNALKDEILKA (designed binder, not fully specified, Expressed and purified as described for ABDCon; also called ABDCon T31A; not shown: N-terminal 8-His tag as for ABDCon) [ABDCon9]
Result: 206

Shifting focus to the binder that follows.
Task: Return reported Kd; argument: LKEAKEKAIEELKKAGITSDYYFDLINKAKTVEGVNVLKDEILKA (designed binder, not fully specified, Expressed and purified as described for ABDCon; also called ABDCon A37V; not shown: N-terminal 8-His tag as for ABDCon) [ABDCon10]
Result: 1.3

Data origin: patent US20160083436A1
